test_description: Levels of Orally Administered Test Compounds in Blood Plasma
Type: in vivo, male ICR mice
assay_context: mouse, plasma; oral 25 mg/kg, 5 min; read-out: Concentration of unchanged M143 in blood plasma, mean
assay_endpoint: concentration at 5 min (µg/mL)
Answers are plain numbers, in µg/mL.

IN: Which concentration at 5 min is listed for COc1cc(O)c2c(=O)oc(CO)cc2c1 [MI43, reference compound] ?
OUT: 0.811

---

test_description: Levels of Orally Administered Test Compounds in Blood Plasma
Format: in vivo, male ICR mice
assay_context: mouse, plasma; oral 25 mg/kg, 4 hr; read-out: Concentration of unchanged Compound 3 in blood plasma, mean
assay_endpoint: concentration at 4 h (µg/mL)
Numbers only, in µg/mL.

IN: Which concentration at 4 h is listed for COc1cc(O)c2c(=O)oc(C(C)C(=O)O)cc2c1 (stereo not shown) ?
OUT: 63

---

test_description: Levels of Orally Administered Test Compounds in Blood Plasma
Format: in vivo, male ICR mice
assay_context: mouse, plasma; oral 25 mg/kg, 30 min; read-out: Concentration of unchanged M143 in blood plasma, mean
assay_endpoint: concentration at 0.5 h (ng/mL)
Numbers only, in ng/mL.

IN: Which concentration at 0.5 h is listed for COc1cc(O)c2c(=O)oc(CO)cc2c1 [MI43, reference compound] ?
OUT: 155

---

test_description: Levels of Orally Administered Test Compounds in Blood Plasma
Format: in vivo, male ICR mice
assay_context: mouse, plasma; oral 25 mg/kg, 8 hr; read-out: Concentration of unchanged Compound 3 in blood plasma, mean
assay_endpoint: concentration at 8 h

IN: Which concentration at 8 h is listed for COc1cc(O)c2c(=O)oc(C(C)C(=O)O)cc2c1 (stereo not shown) [Compound 3] ?
OUT: 38400 ng/mL

---

test_description: Levels of Orally Administered Test Compounds in Blood Plasma
Format: in vivo, male ICR mice
assay_context: mouse, plasma; oral 25 mg/kg, 30 min; read-out: Concentration of unchanged Compound 3 in blood plasma, mean
assay_endpoint: concentration at 0.5 h (µg/mL)
One number for each entry, in µg/mL.

IN: Which concentration at 0.5 h is listed for COc1cc(O)c2c(=O)oc(C(C)C(=O)O)cc2c1 (stereo not shown) ?
OUT: 131

Origin of measurements: patent US6020363A
